- measured on: T1, RHPN1, Q8TCX5
- T1 sequence (Q8TCX5 508-602, limits assumed, looked up): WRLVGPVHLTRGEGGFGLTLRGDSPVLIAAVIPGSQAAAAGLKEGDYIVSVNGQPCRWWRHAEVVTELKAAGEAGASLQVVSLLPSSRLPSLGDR
- test name: holdup assay
- Set-up: key: below the threshold = too weak to quantify, mostly under pKd 3.1 to 4
- details: plain residues with an end cap or a label only (N-terminal biotin on a linker: ahx)
Output 1.0 for pKd not less than 4; output 0.0 otherwise.

HTHSYIETHV [CNKSR2, Q8WXI2]: 1.0
QNTDDVQTSF [ACE2, Q9BYF1]: 1.0
TQKFRASTAL [FRMPD1, Q5SYB0]: 0.0
APSRKLNTEI [TIAM1, Q13009]: 0.0
QDEKVKESYV [ABCA1, O95477]: 1.0
QPRTWLQSPV [RTKN, Q9BST9]: 0.0

Kindly determine if pKd recorded for TESNLQTSSC [CGN, Q9P2M7] is above or exactly 4.
1.0
